biological target: Bromodomain-containing protein 4 (Homo sapiens, UniProt O60885); test: Inhibition of His-tagged BRD4 bromodomain 2 (unknown origin) using [Lys (5,8,12,16) Ac] H4(1-21) as substrate by fluorescence based assay
pIC50: −log10 of the molar value.
observationType: pIC50

smilestext=Cn1cc(-c2ccccc2Oc2ccccc2)c2cc(C(=O)NCCCCC(=O)Nc3ccccc3N)[nH]c2c1=O observationtype=pIC50 valueobserved=7.95
smilestext=Cn1cc(-c2cc(C(C)(C)O)ccc2OC2CC2)c2cc(C(=O)NCc3ccc(C(=O)NO)cc3)[nH]c2c1=O observationtype=pIC50 valueobserved=8.16
smilestext=Cn1cc(-c2cc(C(C)(C)O)ccc2Oc2ccc(F)cc2F)c2cc(C(=O)NCc3ccc(C(=O)Nc4ccccc4N)cc3)[nH]c2c1=O observationtype=pIC50 valueobserved=8.82

---

molecular target: Histone deacetylase 4 (Homo sapiens, UniProt P56524)
Sequence (P56524 whole entry): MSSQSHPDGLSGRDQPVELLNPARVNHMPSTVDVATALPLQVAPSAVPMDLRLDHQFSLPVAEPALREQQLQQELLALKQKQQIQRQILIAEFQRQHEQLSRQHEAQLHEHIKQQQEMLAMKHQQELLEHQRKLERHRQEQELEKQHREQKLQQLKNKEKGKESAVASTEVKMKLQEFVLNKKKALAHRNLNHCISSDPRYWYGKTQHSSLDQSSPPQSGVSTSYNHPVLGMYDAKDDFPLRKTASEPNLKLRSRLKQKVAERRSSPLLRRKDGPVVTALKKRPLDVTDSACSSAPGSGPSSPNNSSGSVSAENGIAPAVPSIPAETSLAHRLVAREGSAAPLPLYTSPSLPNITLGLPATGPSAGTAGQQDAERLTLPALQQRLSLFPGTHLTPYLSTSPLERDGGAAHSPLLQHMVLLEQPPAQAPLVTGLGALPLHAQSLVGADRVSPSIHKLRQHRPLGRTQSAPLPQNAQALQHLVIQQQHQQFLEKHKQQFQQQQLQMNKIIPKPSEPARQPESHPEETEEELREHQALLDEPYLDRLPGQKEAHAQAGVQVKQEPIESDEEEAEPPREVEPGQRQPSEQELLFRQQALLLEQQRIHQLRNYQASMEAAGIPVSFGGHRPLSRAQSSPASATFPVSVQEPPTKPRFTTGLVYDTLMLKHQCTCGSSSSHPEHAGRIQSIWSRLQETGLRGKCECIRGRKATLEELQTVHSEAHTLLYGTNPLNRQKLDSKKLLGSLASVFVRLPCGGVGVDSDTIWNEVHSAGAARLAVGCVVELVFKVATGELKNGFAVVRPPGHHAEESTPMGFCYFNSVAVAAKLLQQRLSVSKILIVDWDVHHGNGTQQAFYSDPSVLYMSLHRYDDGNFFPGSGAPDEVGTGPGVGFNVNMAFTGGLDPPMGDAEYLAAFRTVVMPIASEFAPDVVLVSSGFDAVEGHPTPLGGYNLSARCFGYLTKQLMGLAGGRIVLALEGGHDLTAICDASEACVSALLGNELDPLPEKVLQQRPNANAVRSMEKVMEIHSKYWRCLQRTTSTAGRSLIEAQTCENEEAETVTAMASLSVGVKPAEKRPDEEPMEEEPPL
observationType: IC50

smilestext=CC(C)Oc1ccc(C(C)(C)O)cc1-c1cn(C)c(=O)c2[nH]c(C(=O)NCc3ccc(C(=O)Nc4ccccc4N)cc3)cc12 valueobserved="> 10 µM"

---

Readings of IC50 for the listed molecules
biological target: Bromodomain-containing protein 4 (Homo sapiens, UniProt O60885); assay: Inhibition of His-tagged BRD4 bromodomain 2 (unknown origin) using [Lys (5,8,12,16) Ac] H4(1-21) as substrate by fluorescence based assay
observationType: IC50 (nM)

molecule=Cn1cc(-c2ccccc2F)c2cc(C(=O)NCc3ccc(C(=O)Nc4ccccc4N)cc3)[nH]c2c1=O relationqualifier== valueobserved=55.3
molecule=Cn1cc(-c2cccc(Cl)c2)c2cc(C(=O)NCc3ccc(C(=O)Nc4ccccc4N)cc3)[nH]c2c1=O relationqualifier== valueobserved=158
molecule=Cc1ccc(-c2cn(C)c(=O)c3[nH]c(C(=O)NCc4ccc(C(=O)Nc5ccccc5N)cc4)cc23)cc1 relationqualifier== valueobserved=122
molecule=CC(C)Oc1ccc(C(C)(C)O)cc1-c1cn(C)c(=O)c2[nH]c(C(=O)NCCCCCCC(=O)NO)cc12 relationqualifier== valueobserved=6
molecule=Cc1cc(F)cc(C)c1Oc1ccc(C(C)(C)O)cc1-c1cn(C)c(=O)c2[nH]c(C(=O)NCCCCCCC(=O)NO)cc12 relationqualifier== valueobserved=1.2
molecule=Cn1cc(-c2ccccc2Cl)c2cc(C(=O)NCc3ccc(C(=O)Nc4ccccc4N)cc3)[nH]c2c1=O relationqualifier== valueobserved=206
molecule=Cn1cc(-c2cc(C(C)(C)O)ccc2OC2CC2)c2cc(C(=O)NCCCCCCC(=O)NO)[nH]c2c1=O relationqualifier== valueobserved=5.8
molecule=Cc1cccc(-c2cn(C)c(=O)c3[nH]c(C(=O)NCc4ccc(C(=O)Nc5ccccc5N)cc4)cc23)c1 relationqualifier== valueobserved=105
molecule=Cn1cc(-c2cccc(F)c2)c2cc(C(=O)NCc3ccc(C(=O)Nc4ccccc4N)cc3)[nH]c2c1=O relationqualifier== valueobserved=75.9
molecule=Cn1cc(-c2ccc(C(F)(F)F)cc2)c2cc(C(=O)NCc3ccc(C(=O)Nc4ccccc4N)cc3)[nH]c2c1=O relationqualifier== valueobserved=364
molecule=Cn1cc(-c2cc(C(C)(C)O)ccc2Oc2ccc(F)cc2F)c2cc(C(=O)NCCCCCCC(=O)NO)[nH]c2c1=O relationqualifier== valueobserved=7.2
molecule=Cn1cc(-c2ccccc2C(F)(F)F)c2cc(C(=O)NCc3ccc(C(=O)Nc4ccccc4N)cc3)[nH]c2c1=O relationqualifier== valueobserved=571
molecule=Cn1cc(-c2ccccc2Oc2ccccc2)c2cc(C(=O)NCc3ccc(C(=O)NO)cc3)[nH]c2c1=O relationqualifier== valueobserved=11.3
molecule=Cn1cc(-c2ccccc2Oc2ccccc2)c2cc(C(=O)NCCCC(=O)NO)[nH]c2c1=O relationqualifier== valueobserved=103
molecule=CC(C)Oc1ccc(C(C)(C)O)cc1-c1cn(C)c(=O)c2[nH]c(C(=O)NCc3ccc(C(=O)NO)cc3)cc12 relationqualifier== valueobserved=10
molecule=Cn1cc(-c2ccccc2Oc2ccccc2)c2cc(C(=O)NCCCCC(=O)NO)[nH]c2c1=O relationqualifier== valueobserved=4.8
molecule=Cn1cc(-c2cc(C(C)(C)O)ccc2Oc2ccccc2)c2cc(C(=O)NCc3ccc(C(=O)Nc4ccccc4N)cc3)[nH]c2c1=O relationqualifier== valueobserved=3
molecule="Nc1ccccc1NC(=O)c1ccc(CNC(=O)OCc2cccnc2)cc1 [ENTINOSTAT]" relationqualifier=> valueobserved=10000
molecule=Cn1cc(-c2ccccc2)c2cc(C(=O)NCc3ccc(C(=O)Nc4ccccc4N)cc3)[nH]c2c1=O relationqualifier== valueobserved=75.8
molecule=Cn1cc(-c2ccccc2Oc2ccccc2)c2cc(C(=O)NCCCCCCC(=O)NO)[nH]c2c1=O relationqualifier== valueobserved=5.3
molecule=Cc1cc(F)cc(C)c1Oc1ccc(C(C)(C)O)cc1-c1cn(C)c(=O)c2[nH]c(C(=O)NCc3ccc(C(=O)Nc4ccccc4N)cc3)cc12 relationqualifier== valueobserved=36.6
molecule=COc1cccc(-c2cn(C)c(=O)c3[nH]c(C(=O)NCc4ccc(C(=O)Nc5ccccc5N)cc4)cc23)c1 relationqualifier== valueobserved=116
molecule=Cc1cc(F)cc(C)c1Oc1ccc(C(C)(C)O)cc1-c1cn(C)c(=O)c2[nH]c(C(=O)NCc3ccc(C(=O)NO)cc3)cc12 relationqualifier== valueobserved=1.5
molecule=Cc1ccccc1-c1cn(C)c(=O)c2[nH]c(C(=O)NCc3ccc(C(=O)Nc4ccccc4N)cc3)cc12 relationqualifier== valueobserved=149
molecule=Cn1cc(-c2cccc(C(F)(F)F)c2)c2cc(C(=O)NCc3ccc(C(=O)Nc4ccccc4N)cc3)[nH]c2c1=O relationqualifier== valueobserved=313
molecule=Cn1cc(-c2cc(C(C)(C)O)ccc2OC2CC2)c2cc(C(=O)NCc3ccc(C(=O)Nc4ccccc4N)cc3)[nH]c2c1=O relationqualifier== valueobserved=2.1
molecule=CC(C)Oc1ccccc1-c1cn(C)c(=O)c2[nH]c(C(=O)NCc3ccc(C(=O)Nc4ccccc4N)cc3)cc12 relationqualifier== valueobserved=15.3
molecule=Cn1cc(-c2cccc(C(C)(C)O)c2)c2cc(C(=O)NCc3ccc(C(=O)Nc4ccccc4N)cc3)[nH]c2c1=O relationqualifier== valueobserved=30
molecule=COc1ccc(C(C)(C)O)cc1-c1cn(C)c(=O)c2[nH]c(C(=O)NCc3ccc(C(=O)Nc4ccccc4N)cc3)cc12 relationqualifier== valueobserved=7
molecule=Cn1cc(-c2cc(C(C)(C)O)ccc2Oc2ccc(F)cc2F)c2cc(C(=O)NCc3ccc(C(=O)NO)cc3)[nH]c2c1=O relationqualifier== valueobserved=12.4
molecule=COc1ccc(-c2cn(C)c(=O)c3[nH]c(C(=O)NCc4ccc(C(=O)Nc5ccccc5N)cc4)cc23)cc1 relationqualifier== valueobserved=61.2
molecule=Cn1cc(-c2ccc(Cl)cc2)c2cc(C(=O)NCc3ccc(C(=O)Nc4ccccc4N)cc3)[nH]c2c1=O relationqualifier== valueobserved=278

---

The compounds listed here are annotated with their IC50.
Biological target: Histone deacetylase 11 (Homo sapiens)
Sequence (Q96DB2 whole entry): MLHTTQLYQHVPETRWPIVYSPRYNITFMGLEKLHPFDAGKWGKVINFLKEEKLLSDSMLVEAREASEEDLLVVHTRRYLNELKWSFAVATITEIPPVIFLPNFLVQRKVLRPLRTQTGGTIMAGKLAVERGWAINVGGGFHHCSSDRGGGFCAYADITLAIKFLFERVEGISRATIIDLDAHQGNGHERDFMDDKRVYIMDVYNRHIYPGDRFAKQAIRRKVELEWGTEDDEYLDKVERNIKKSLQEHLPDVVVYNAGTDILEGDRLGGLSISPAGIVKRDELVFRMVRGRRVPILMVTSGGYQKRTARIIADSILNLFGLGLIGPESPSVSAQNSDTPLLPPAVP
observationType: IC50

smilestext=CC(C)Oc1ccc(C(C)(C)O)cc1-c1cn(C)c(=O)c2[nH]c(C(=O)NCc3ccc(C(=O)Nc4ccccc4N)cc3)cc12 valueobserved="> 10 µM"
smilestext=CC(C)Oc1ccc(C(C)(C)O)cc1-c1cn(C)c(=O)c2[nH]c(C(=O)NCCCCCCC(=O)NO)cc12 valueobserved="> 10 µM"

---

biological target: Bromodomain-containing protein 4 (Homo sapiens, UniProt O60885); assay: Inhibition of His-tagged BRD4 bromodomain 1 (unknown origin) using [Lys (5,8,12,16) Ac] H4(1-21) as substrate by fluorescence based assay
pIC50: −log10 of the molar value.
observationType: pIC50

smilestext=Cn1cc(-c2cccc(C(C)(C)O)c2)c2cc(C(=O)NCc3ccc(C(=O)Nc4ccccc4N)cc3)[nH]c2c1=O observationtype=pIC50 valueobserved=7.70
smilestext=CC(C)Oc1ccc(C(C)(C)O)cc1-c1cn(C)c(=O)c2[nH]c(C(=O)NCc3ccc(C(=O)Nc4ccccc4N)cc3)cc12 observationtype=pIC50 valueobserved=8.25
smilestext=Cn1cc(-c2ccc(C(F)(F)F)cc2)c2cc(C(=O)NCc3ccc(C(=O)Nc4ccccc4N)cc3)[nH]c2c1=O observationtype=pIC50 valueobserved=6.84
